Assay: HT1080 cell viability loss – fluorescence readout (AID 620);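 note: cells exposed to compound overnight then 4 h with Alamar Blue; 0% = vehicle DMSO and 100% = killing control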
Conditions: at 10 µM, hits give high values
In all, about 87,000 compounds went through this assay and about 360 (0.41%) were called active. The list comes from a sample in which actives are over-represented; it also holds close analogues and randomly drawn compounds.
endpoint.name: cytotoxicity (%)

INSERT INTO measurements (compound, endpoint_name, result) VALUES
  ('O=C(Nc1ccc2nc(-c3ccccc3)[nH]c2c1)c1cccs1', 'cytotoxicity', 56.7),
  ('COc1ccccc1-n1cnc2cc(NCc3ccccn3)ccc21', 'cytotoxicity', -10),
  ('COc1cccc(C(=O)Nc2ccc(F)cc2F)c1', 'cytotoxicity', -7.7),
  ('COc1ccc(C2C(C(C)=O)=C(O)C(=O)N2C)c(OC)c1 (configuration not stated)', 'cytotoxicity', 5.8),
  ('O=S(=O)(c1ccc(Cl)cc1)N1c2ccccc2Oc2nc3ccccc3nc21', 'cytotoxicity', 3.8),
  ('Cn1c(C(=O)N2CCC(C(=O)N3CCOCC3)CC2)cc2sccc21', 'cytotoxicity', 4.3),
  ('COC(=O)C1=C(C)C(c2ccc(OC)cc2OC)NC(=O)N1 (configuration not stated)', 'cytotoxicity', 2.9),
  ('COc1ccc(O)c(C(=O)c2cc(C#N)c(=O)n(CCN3CCOCC3)c2)c1', 'cytotoxicity', 7),
  ('O=C(Nc1ccc(-c2nc3ccc(NC(=O)c4cccs4)cc3[nH]2)cc1)c1cccs1', 'cytotoxicity', 16.4),
  ('COc1ccccc1N1CCN(C(=O)C2CCN(S(=O)(=O)c3ccccc3)CC2)CC1', 'cytotoxicity', -0.7),
  ('Cc1cc(C)cc(N(CC(=O)N2CCN(Cc3ccccc3)CC2)S(=O)(=O)c2c(C)noc2C)c1', 'cytotoxicity', -0.8),
  ('COc1ccc(S(=O)(=O)N2c3cc(Cl)ccc3Oc3nc4ccccc4nc32)cc1', 'cytotoxicity', 70.2),
  ('CCOc1ccccc1NC(=O)N1CCC(c2nc3ccccc3[nH]2)CC1', 'cytotoxicity', 2.8),
  ('CCOC(=O)C1CCCN(C(=O)C2CCN(S(=O)(=O)c3cnc[nH]3)CC2)C1 (configuration not stated)', 'cytotoxicity', 3.9),
  ('O=C(Nc1ccccn1)C(=O)N1CCCCC1', 'cytotoxicity', 4.7),
  ('COc1ccccc1NC(=O)N1CCC(c2nc3cc(C)c(C)cc3[nH]2)CC1', 'cytotoxicity', 72.8),
  ('COc1ccc(C2CC(c3c(O)cc(C)oc3=O)=NCCS2)c(OC)c1 (configuration not stated)', 'cytotoxicity', 51.9),
  ('COc1ccccc1-n1cnc2cc(C(=O)NCc3ccco3)ccc21', 'cytotoxicity', -2.4),
  ('CN(C)/C=C(\C(=O)c1ccc(Cl)cc1)c1nnnn1-c1ccc(Cl)cc1', 'cytotoxicity', 5.8),
  ('COc1ccc(-n2cnc3cc(NCc4cccs4)ccc32)cc1', 'cytotoxicity', 1.1),
  ('COc1cccc(NC(=O)c2ccccc2-c2nc(-c3ccc(Cl)cc3)no2)c1', 'cytotoxicity', 16.9),
  ('CCOC(=O)N1CCN(C(=O)c2cnsn2)CC1', 'cytotoxicity', -5.1);

###

Assay: HT1080 cell viability loss – fluorescence readout (AID 620);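 note: cells exposed to compound overnight then 4 h with Alamar Blue; 0% = vehicle DMSO and 100% = killing control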
Conditions: at 10 µM, hits give high values
In all, about 87,000 compounds went through this assay and about 360 (0.41%) were called active. The entries come from a sample that favours actives as a whole.
endpoint.name: cytotoxicity

INSERT INTO measurements (molecule, endpoint_name, result) VALUES
  ('O=C(Nc1cccc(Cl)c1)N(CCN1CCOCC1)Cc1cccc(Cl)c1', 'cytotoxicity', '24% (inactive)'),
  ('COc1ccc(-c2nc(-c3ccccc3)c(-c3cc([N+](=O)[O-])ccc3C)[nH]2)cc1O', 'cytotoxicity', '10.8% (inactive)'),
  ('CNC(=O)[C@@]1(Cc2ccccc2)C=C[C@@H](C)N1C(=O)OC', 'cytotoxicity', '-24.6% (inactive)'),
  ('CCSc1nnc(-c2ccc(S(=O)(=O)N3CCOCC3)cc2)n1CC1CCCO1 (centres undefined)', 'cytotoxicity', '-1.1% (inactive)'),
  ('COC(=O)[C@@H]1C[C@@H]2CC[C@@H](O)C[C@@H]2N1Cc1ccc(Cl)cc1', 'cytotoxicity', '4.3% (inactive)'),
  ('COCCNc1nnc(SCC(=O)c2ccc3c(c2)OCO3)s1', 'cytotoxicity', '1.3% (inactive)'),
  ('CC1/C(=N/O)CC(c2ccccc2)N(C)C1c1ccccc1 (centres undefined)', 'cytotoxicity', '-0.2% (inactive)'),
  ('CCSc1nnc(NC(=O)c2csc(C)c2)s1', 'cytotoxicity', '25.7% (inactive)'),
  ('Cc1[nH]c(=O)[nH]c(=O)c1S(=O)(=O)N1c2ccc(F)cc2CCC1C (centres undefined)', 'cytotoxicity', '-0.4% (inactive)'),
  ('CCSc1nnc(NC(=O)c2ccccn2)s1', 'cytotoxicity', '-11% (inactive)'),
  ('CSc1nnc(-c2ccc(S(=O)(=O)N3CCOCC3)cc2)n1CC1CCCO1 (centres undefined)', 'cytotoxicity', '0.1% (inactive)'),
  ('Cn1c(SCC(=O)NCCNC(=O)CSc2nnc(C(F)(F)F)n2C)nnc1C(F)(F)F', 'cytotoxicity', '5.9% (inactive)'),
  ('COc1ccc(S(=O)(=O)CCC(=O)NCCc2ccc(C)cc2)cc1', 'cytotoxicity', '-7.2% (inactive)'),
  ('COC(=O)[C@@]1(Cc2ccccc2)[C@H]2c3cc(C(=O)N(C)C)n(Cc4ccc(S(C)(=O)=O)cc4)c3C[C@H]2CN1C(=O)c1ccccc1', 'cytotoxicity', '2.9% (inactive)'),
  ('COC(=O)[C@@H]1C[C@@H]2CC[C@@H](O)C[C@@H]2N1Cc1ccc(-c2ccccc2)cc1', 'cytotoxicity', '1.4% (inactive)'),
  ('CCSc1nnnn1-c1ccccc1', 'cytotoxicity', '11% (inactive)'),
  ('O=C(NCCCN1CCCC1=O)c1cccs1', 'cytotoxicity', '1.9% (inactive)'),
  ('Cc1onc(-c2c(F)cccc2Cl)c1C(=O)OCn1nnc2ccccc2c1=O', 'cytotoxicity', '-0.3% (inactive)'),
  ('Cn1c(=O)[nH]c2sc3c(c2c1=O)CC(C)(C)OC3', 'cytotoxicity', '27.1% (inactive)'),
  ('Cc1cc(NC(=O)COC(=O)c2cccc(S(=O)(=O)N3CCOCC3)c2)no1', 'cytotoxicity', '8.4% (inactive)'),
  ('CC(C)c1ccc(NC(=S)NCc2cccs2)cc1', 'cytotoxicity', '-17.4% (inactive)'),
  ('Cc1cc(C)c2c(c1)cc(C)c1nnc(SCC(=O)Nc3cc(C)on3)n12', 'cytotoxicity', '20.3% (inactive)'),
  ('COc1cccc(Oc2nnnn2-c2ccccc2)c1', 'cytotoxicity', '-0.2% (inactive)'),
  ('Cc1cc(NC(=O)CSc2nnc3c(C)cc4c(C)ccc(C)c4n23)no1', 'cytotoxicity', '58.9% (active)'),
  ('Cc1csc(NC(=O)c2cc3c(s2)CCCCC3)n1', 'cytotoxicity', '-7.3% (inactive)'),
  ('O=C(COc1ccc(S(=O)(=O)Nc2ccccc2)cc1)N1CCOCC1', 'cytotoxicity', '-4.7% (inactive)'),
  ('CCn1ncc(Br)c1C(=O)Nc1ccc(C(=O)OC(C)C)cc1', 'cytotoxicity', '-9.8% (inactive)'),
  ('O=C(O)C1CC=CCC1C(=O)Nc1ccc(S(=O)(=O)N2CCCc3ccccc32)cc1 (centres undefined)', 'cytotoxicity', '-8.5% (inactive)'),
  ('Cc1cc(NC(=O)COC(=O)c2ccc(S(=O)(=O)N3CCCc4ccccc43)cc2)no1', 'cytotoxicity', '52.4% (active)'),
  ('COC(=O)[C@@H]1C[C@H]2CC[C@H](O)C[C@H]2N1Cc1ccc(-c2ccccc2)cc1', 'cytotoxicity', '68.8% (active)'),
  ('CCOC(=O)c1cc(-c2ccc(C)o2)nn1CCC#N', 'cytotoxicity', '0.3% (inactive)'),
  ('Cc1cc(NC(=O)COC(=O)c2ccc(NS(=O)(=O)c3ccc(C)c(C)c3)cc2)no1', 'cytotoxicity', '-8.8% (inactive)'),
  ('CCCCCCSc1cc(C)nc2ncnn12', 'cytotoxicity', '-4.5% (inactive)'),
  ('O=C(OCn1ncc(Br)c(Br)c1=O)c1ccccc1Cl', 'cytotoxicity', '40% (inactive)'),
  ('CCN(CC)c1ccc(-c2nn3c(-c4ccccc4OC)nnc3s2)cc1', 'cytotoxicity', '50.1% (active)'),
  ('CCc1cccc(CC)c1NC(=O)CSc1nnc(C(C)C)n1CC', 'cytotoxicity', '0.9% (inactive)'),
  ('CCN(CC)c1nc(N)nc(NS(=O)(=O)c2ccc(Cl)cc2)n1', 'cytotoxicity', '51.4% (active)'),
  ('CCN(CC)c1ccc(-c2nn3c(-c4cccnc4)nnc3s2)cc1', 'cytotoxicity', '2.9% (inactive)'),
  ('COC(=O)N1[C@H](C)C=C[C@]1(Cc1ccccc1)C(=O)O', 'cytotoxicity', '90.8% (active)'),
  ('c1ccc(-n2nnnc2SCCCSc2nc3ccccc3s2)cc1', 'cytotoxicity', '5.7% (inactive)'),
  ('c1ccc(Nc2ccccn2)cc1', 'cytotoxicity', '-6.8% (inactive)'),
  ('CN(C)c1nc(NS(=O)(=O)c2ccc(Cl)cc2)nc(N(C)C)n1', 'cytotoxicity', '35.3% (inactive)'),
  ('COc1ccc(-c2c/c(=N\c3nc(-c4ccccc4)c(C)s3)c3ccccc3o2)cc1O', 'cytotoxicity', '60% (active)'),
  ('COC(=O)C1=C(COc2ccccc2)NC(=O)NC1c1ccc2ccccc2c1 (centres undefined)', 'cytotoxicity', '-5.7% (inactive)');

Values compiled from PubChem BioAssay AID620.
